# assay_explanation: isobaric coefficient of expansion
# cond: 308.15 K; 55000 kPa; Liquid; DSC
Listed here are compounds together with their documented isobaric coefficient of expansion.

{"molecule_smiles": "CCCCCCCCCCCCC", "isobaric coefficient of expansion": "0.000718 1/K"}
{"molecule_smiles": "ClC(Cl)(Cl)Cl", "isobaric coefficient of expansion": "0.00094 1/K"}
{"molecule_smiles": "CCCCCCCCC", "isobaric coefficient of expansion": "0.000804 1/K"}
{"molecule_smiles": "CCCCCCCCCC", "isobaric coefficient of expansion": "0.000782 1/K"}
{"molecule_smiles": "c1ccccc1", "isobaric coefficient of expansion": "0.000955 1/K"}
{"molecule_smiles": "CCCCCCCCCCC", "isobaric coefficient of expansion": "0.000759 1/K"}
{"molecule_smiles": "CCCCCCCCCCCCCCC", "isobaric coefficient of expansion": "0.000709 1/K"}
{"molecule_smiles": "CCCCCCCCCCCCCC", "isobaric coefficient of expansion": "0.000719 1/K"}
{"molecule_smiles": "CCCCCCCCCCCC", "isobaric coefficient of expansion": "0.000745 1/K"}
